Source listed as patent US12492188B2.

Measured On: human TLR9 (Homo sapiens, UniProt Q9NR96)
Construct: host or cells: HEK-Blue cells (HEK293-derived reporter line)
Sequence (Q9NR96 26-1032): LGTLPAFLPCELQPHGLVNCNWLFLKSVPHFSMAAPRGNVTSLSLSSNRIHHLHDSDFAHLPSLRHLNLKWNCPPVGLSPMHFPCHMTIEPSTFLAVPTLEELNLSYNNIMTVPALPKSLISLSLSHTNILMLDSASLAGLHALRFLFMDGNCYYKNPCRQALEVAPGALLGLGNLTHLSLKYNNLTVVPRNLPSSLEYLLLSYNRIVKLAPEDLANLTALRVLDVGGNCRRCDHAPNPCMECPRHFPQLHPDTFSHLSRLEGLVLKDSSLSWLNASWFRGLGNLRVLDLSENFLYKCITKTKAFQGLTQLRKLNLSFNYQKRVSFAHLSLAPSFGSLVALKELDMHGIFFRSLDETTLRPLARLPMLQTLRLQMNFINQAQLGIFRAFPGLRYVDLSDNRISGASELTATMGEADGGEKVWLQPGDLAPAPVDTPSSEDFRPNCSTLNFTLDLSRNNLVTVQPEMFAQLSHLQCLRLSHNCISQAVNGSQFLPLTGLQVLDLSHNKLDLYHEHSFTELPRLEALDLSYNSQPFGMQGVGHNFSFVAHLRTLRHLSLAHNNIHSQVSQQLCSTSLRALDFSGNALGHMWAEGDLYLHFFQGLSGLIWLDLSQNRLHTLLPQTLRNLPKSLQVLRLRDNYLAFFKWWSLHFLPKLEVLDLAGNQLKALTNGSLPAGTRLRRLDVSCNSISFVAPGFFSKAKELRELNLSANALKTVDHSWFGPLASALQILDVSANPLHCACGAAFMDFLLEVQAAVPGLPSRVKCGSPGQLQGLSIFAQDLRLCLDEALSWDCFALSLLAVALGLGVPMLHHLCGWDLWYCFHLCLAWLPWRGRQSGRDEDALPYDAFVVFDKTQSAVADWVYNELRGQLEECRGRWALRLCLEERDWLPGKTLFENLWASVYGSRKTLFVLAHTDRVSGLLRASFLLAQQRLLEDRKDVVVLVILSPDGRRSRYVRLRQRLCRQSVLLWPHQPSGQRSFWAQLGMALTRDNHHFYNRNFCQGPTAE
Test Protocol: TLR9 inhibition reporter assay (HEK-Blue cells, secreted embryonic alkaline phosphatase reporter)
Assay type: cell-based
Study Conditions: HEK-Blue cells overexpressing human TLR9, stimulated with ODN2006 5 nM, 22 hour incubation, reporter readout
# if measured IC50 < 200 nM: condition met  # else: condition not met

Compound	Measured On	Class Assignment
Cc1cc(C2CCN(C3CCN(CC(C)C)CC3)CC2)cc2[nH]c(-c3ccc(OC(F)F)cc3)nc12	human TLR9 (Homo sapiens, UniProt Q9NR96)	condition not met
Cc1cc(C2CCN(C3CCN(CC(C)C)CC3)CC2)cc2[nH]c(-c3nc4ccccc4s3)nc12 [Example 70, tris(2,2,2-trifluoroacetate)]	human TLR9 (Homo sapiens, UniProt Q9NR96)	condition not met
Cc1cc(C2CCN(C3CC4CCC(C3)N4C(C)C)CC2)cc2c1nc(-c1ccc(S(C)(=O)=O)cc1)n2C (single isomer, unassigned) [Example 85]	human TLR9 (Homo sapiens, UniProt Q9NR96)	condition met

# TODO verify IC50 < 200 nM strictly for this compound: `CN(C)C1CCN(Cc2ccc(-c3ccc4nc(-c5ccc(F)cc5)n(C)c4c3)cc2)CC1`
condition not met

Consider `CC(C)N1CCC(N2CCC(c3ccc4nc(-c5ccc(S(C)(=O)=O)cc5)n(C)c4c3F)CC2)CC1` . Does its IC50 lie strictly below 200 nM?
condition met

Is it true that IC50 reported for `COc1ccc(-c2nc3c(C)cc(C4CCN(C5CCN(C(C)C)CC5)CC4)cc3n2C)cc1OC` is less than 200 nM?
condition met

IC50 under 200 nM? Item: `Cc1cc(C2CCN(C3CCN(CC(C)C)CC3)CC2)cc2[nH]c(-c3ccc4nccn4c3)nc12`
condition met

Confirm or reject: IC50 of `COc1ccc(-c2nc3c(C)cc(C4CCN(C5CCN(C6CC6)CC5)CC4)cc3n2C)cc1F` lies strictly below 200 nM
condition met

Quick check: does `CN(C)C1CCN(Cc2ccc(-c3ccc4nc(-c5cccc(F)c5)n(C)c4c3)cc2)CC1` have IC50 under 200 nM?
condition not met

Does the reported IC50 of the following compound sit strictly below 200 nM? Cc1cc(C2CCN(C3CC4CCC(C3)N4CC(C)C)CC2)cc2c1nc(-c1ccc(S(C)(=O)=O)cc1)n2C (centres unmarked)
condition met

# TODO verify IC50 < 200 nM strictly for this compound: `Cc1cc(-c2ccc(CN3CCC(N(C)C4CC4)CC3)cc2)cc2c1nc(-c1ccc(S(C)(=O)=O)cc1)n2C`
condition not met

hey, is IC50 for `CC(C)N1CCC(N2CCC(c3cc(F)c4nc(-c5ccc(S(C)(=O)=O)cc5)n(C5CC5)c4c3)CC2)CC1` lower than 200 nM or not?
condition met

Check if IC50 falls below 200 nM for `Cc1cc(-c2cc(F)c(CN3CCC(N(C)C)CC3)c(F)c2)cc2c1nc(-c1ccc(S(C)(=O)=O)cc1)n2C` .
condition not met

Does the reported IC50 of `Cc1cc(-c2ccc(C3CCN(C4CCN(C)CC4)CC3)cc2)cc2c1nc(-c1ccc(S(C)(=O)=O)cc1)n2C` stay below 200 nM?
condition met
